Where these numbers come from: PubChem BioAssay AID493011

# targetOrSystem: DNA dC->dU-editing enzyme APOBEC-3A (Homo sapiens)
# runDescription: blockers of A3A cytidine deamination on DNA – biochemical, FAM/TAMRA oligo cleavage fluorescence, selectivity assay for APOBEC3G inhibitor project, primary screen (AID 493011)
# conditionContext: recombinant A3A, FAM/TAMRA ssDNA deamination fluorescence; at 20 µM
Hit rate of the full screen: of about 330,000 compounds, about 1,400 (0.42%) were called active.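 How the source made its calls: active means at least 40% inhibition at 20 µM here, with at most 30% in a related deaminase screen; inactive means the rest.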 This excerpt belongs to a sample that is enriched for actives.
The categories you may choose from are active, inactive

Prompt line: Per the records of this test, what outcome belongs to "Cc1ccc(C(=O)N/N=C/c2cccc3ccccc23)cn1" ?
Response line: inactive

Prompt line: Same thing, different molecule: "Cc1ccc(C(=O)N/N=C\c2cc(Br)c(Br)o2)cn1"
Response line: active

Prompt line: Entry to check: "CN(C)S(=O)(=O)c1ccc(N2CCCC2)c(C(=O)Nc2cccc(F)c2)c1"
Response line: inactive

Prompt line: // query: "O=C(CNC(=O)c1ccc(Br)o1)Nc1ccccc1"
Response line: inactive

Prompt line: Could you do the same for CCCC(=O)Nc1cccc(NC(=S)NC(=O)C(C)Oc2ccc(Cl)cc2Cl)c1 (stereo not drawn) , please?
Response line: inactive

Prompt line: Now the same for CC(=O)c1ccc(NC(=S)N(Cc2ccccc2)C(C)C2CC2)cc1 (stereo not drawn)
Response line: inactive

Prompt line: Another molecule to look at: "O=C(COC(=O)c1cnc(Cl)c(Cl)c1)NCc1ccco1"
Response line: active

Prompt line: Then what about the molecule "O=C(COC(=O)c1ccccc1O)NCc1ccco1" ?
Response line: inactive

Prompt line: Could you do the same for "COc1ccc(C)cc1NC(=O)c1[nH]c(C)c(C(C)=O)c1C" , please?
Response line: inactive

Prompt line: // query: "COc1cccc(NC(=O)CN(C)C(=O)/C=C/c2cc(OC)ccc2OC)c1"
Response line: inactive

Prompt line: Try the molecule CC(CNC(=O)c1ccc(Br)o1)NC(=O)c1ccc(Br)o1 (stereo not drawn)
Response line: inactive

Prompt line: Try the molecule "CCS(=O)(=O)c1ccc(-c2cccc(NC(=O)c3ccc(Br)o3)c2)nn1"
Response line: active

Prompt line: Would you mind doing "O=S(=O)(Nc1ccccc1N1CCOCC1)c1ccc(Cl)s1" as well?
Response line: inactive

Prompt line: One more molecule: "CC(C)c1c(O)nc(SCCOc2ccc(Cl)cc2)[nH]c1=O"
Response line: inactive

Prompt line: Again, but for "COc1ccc(CCNC(=O)COC(=O)c2cnc(Cl)c(Cl)c2)cc1"
Response line: inactive

Prompt line: Try this molecule next: "COc1cccc(NC(=O)CN(C)C(=O)/C=C/c2cn(-c3ccccc3)nc2-c2cccs2)c1"
Response line: inactive

Prompt line: Try this molecule next: "CC(=O)c1c(C)n(-c2ccc(N(C)C)cc2)c2ccc(OCC(N)=O)cc12"
Response line: inactive

Prompt line: What would you report for Cc1cc(Cl)ccc1C(=O)C1CCCN(C(=O)c2nonc2C)C1 (stereo not drawn) ?
Response line: inactive

* * *

# targetOrSystem: DNA dC->dU-editing enzyme APOBEC-3A (Homo sapiens) (UniProt P31941)
# Sequence (P31941 whole entry, looked up): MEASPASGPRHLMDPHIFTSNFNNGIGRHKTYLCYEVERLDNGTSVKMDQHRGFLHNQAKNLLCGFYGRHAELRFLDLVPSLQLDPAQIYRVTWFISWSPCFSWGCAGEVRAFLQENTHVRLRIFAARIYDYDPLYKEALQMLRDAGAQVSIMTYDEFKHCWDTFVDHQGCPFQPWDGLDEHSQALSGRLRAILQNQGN
# runDescription: blockers of A3A cytidine deamination on DNA – biochemical, FAM/TAMRA oligo cleavage fluorescence, selectivity assay for APOBEC3G inhibitor project, primary screen (AID 493011)
# conditionContext: recombinant A3A, FAM/TAMRA ssDNA deamination fluorescence; at 20 µM
In all, about 330,000 compounds went through this assay and about 1,400 (0.42%) were called active.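 How the source made its calls: active means at least 40% inhibition at 20 µM here, with at most 30% in a related deaminase screen; inactive means the rest.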 Many of the other results were omitted from the sample, so actives are more common in it than they were.
Please state which outcome applies, choosing from active, inactive

Prompt line: Record request — test call for CCCCCCCC[n+]1cccc(C(=O)N2c3c(nc(N)[nH]c3=O)NC(C)C2C)c1 (centres undefined)
Response line: active

Prompt line: Same thing, different compound: "O=C(CSc1nc2ccccc2c(=O)[nH]1)Nc1nc(-c2ccc(Br)cc2)cs1"
Response line: active

Prompt line: Another compound to check: "COc1ccc(Cc2nnc(NC(=O)c3cc(OC)c(OC)c(OC)c3)s2)cc1OC"
Response line: inactive

Prompt line: One more compound: "CCOC(=O)c1ccccc1NC(=O)CSc1nc2ccccc2c(=O)[nH]1"
Response line: inactive

Prompt line: Same question, "CCN(CC(=O)N1CCCC1)S(=O)(=O)c1ccc(F)cc1" this time
Response line: inactive

Prompt line: Thanks! And "Cc1csc(SCC(=O)Nc2sccc2C#N)n1" ?
Response line: active

Prompt line: Then Cc1c(NC(=O)C(C)Oc2cccc(Cl)c2)c(=O)n(-c2ccccc2)n1C (centres undefined) ?
Response line: inactive

Prompt line: Repeat with "COc1ccc(CN(C)C(=O)c2cc(-c3ccc(C)cc3C)nc3ccccc23)c(OC)c1OC"
Response line: inactive

Prompt line: Likewise for "N#Cc1c(NC(=O)c2ccc(N3CCOCC3)c([N+](=O)[O-])c2)sc2c1CCCC2" ?
Response line: inactive

Prompt line: And COCCCNC(NC(=O)c1ccc(OC)cc1)C(Cl)(Cl)Cl (centres undefined) ?
Response line: inactive

Prompt line: Continue with "O=C(N/N=C\c1cccnc1)c1cc(-c2ccccc2)nc2c(Cl)cccc12"
Response line: active

Prompt line: Now the compound "Cc1sc2nc(CSCC(=O)NC3CCCCC3)[nH]c(=O)c2c1C"
Response line: inactive

Prompt line: Same for "Cc1ccc(N/N=C2\COC(C)(C)CC2=O)cc1"
Response line: inactive

Prompt line: Please answer likewise for "COc1ccc(C2C3=C(CCCC3=O)N(CC(=O)O)C3=C2C(=O)CCC3)cc1"
Response line: inactive

Prompt line: Same question, CCN(C(=O)COc1cccnc1[N+](=O)[O-])C1CCS(=O)(=O)C1 (centres undefined) this time
Response line: inactive

Prompt line: Now consider "COC(=O)c1ccc(NC(=O)CSc2nnc(Cc3cccn3C)n2-c2ccc(F)cc2)cc1" and answer again.
Response line: inactive

Prompt line: Another compound to look at: "CCCCNC(=O)CCn1nc(-c2ccc(Cl)cc2)ccc1=O"
Response line: inactive

Prompt line: What do you get for "Cc1ccc(C(=O)NC(=S)Nc2ccc3[nH]c(=O)[nH]c3c2)cc1C" ?
Response line: inactive

Prompt line: // query: CC(C)CCN1CCC(C)(NC(=O)c2ccccc2)C1=O (centres undefined)
Response line: inactive

Prompt line: Proceed to "Nc1ccc(C(=O)NCc2ccccc2)cc1"
Response line: inactive

Prompt line: Thanks! And CC1CCCCC1NC(=O)CSc1nnc(N)s1 (centres undefined) ?
Response line: inactive

Prompt line: Query "Cc1ccc(/C=C/C(=O)OCC(=O)NCc2ccc(Cl)cc2)o1" next
Response line: inactive

Prompt line: // same read-out, input: "Cc1ccc(COC(=O)CN2C(=O)NC3(CCCC3)C2=O)cc1"
Response line: inactive

Prompt line: Queued: "Fc1cc(Br)ccc1NC(=S)Nc1cccnc1"
Response line: inactive

Prompt line: // next record "CCOC(=O)c1ccc(NC(=O)CSc2ncccn2)cc1"
Response line: active

Prompt line: Also O=C(c1n[nH]c2c1CCC2)N1CCCC(Nc2cccc(F)c2)C1 (centres undefined) ?
Response line: inactive

Prompt line: Same again, this time with "Cc1ccc(-c2ccc(=O)n(CC(=O)NCCCN3CCCCC3)n2)cc1"
Response line: inactive

Prompt line: Next compound: "CC(=O)c1sc2nc(SCC(=O)N3CCCCC3)[nH]c(=O)c2c1C"
Response line: inactive

Prompt line: Item: "O=C(c1ccc(CS(=O)(=O)c2ccccc2)o1)N1CCN(c2ccccc2)CC1"
Response line: active

Prompt line: Same again, this time with "CCN(CC)c1ccc(S(=O)(=O)N2CCCCC2)cc1NC(=O)C1=COCCO1"
Response line: inactive

Prompt line: Moving on to the next compound: "CCCN1C2=C(C(=O)CCC2)C(c2ccc(O)c(Br)c2)C2=C1CCCC2=O"
Response line: active

Prompt line: And the next one, "CCCCN(C(=O)c1ccc2ccccc2c1)c1c(N)n(CCCC)c(=O)[nH]c1=O" ?
Response line: inactive

Prompt line: Now the compound "COCCn1c(SCC(=O)N2CCCCCC2)nc2c(c1=O)SCC2"
Response line: inactive

Prompt line: Continue with "CS(=O)(=O)NCc1ccc(C(=O)NCc2ccccc2)cc1"
Response line: inactive

Prompt line: How about this compound: Cc1nn2c(c1-c1ccccc1)N=C(c1ccco1)CC2c1ccccc1 (centres undefined)
Response line: inactive

Prompt line: Ok, now "CC(=O)NCc1ccc(-c2csc(NC(=O)CCCc3nc4ccccc4c(=O)[nH]3)n2)cc1"
Response line: inactive

Prompt line: Now try "COCCCn1c(Cc2csc(Nc3cccc(Cl)c3)n2)nnc1SCC(=O)OC1CCCCC1" .
Response line: active

Prompt line: Same question for "COc1ccc(-c2cc(C(=O)N/N=C/c3cccnc3)c3ccccc3n2)c(OC)c1" please.
Response line: inactive

Prompt line: // same read-out, input: "CCOc1ccc(Nc2nc(Cc3nnc(SCC(=O)NC4CCCC4)n3C)cs2)cc1"
Response line: inactive

Prompt line: Now the compound CC(C)CNC(=O)CC(c1ccccc1)c1c(O)ccc2ccccc12 (centres undefined)
Response line: inactive

Prompt line: # repeat for "COc1ccccc1CNC(=O)c1ccc(CS(=O)(=O)c2ccccc2)o1"
Response line: inactive

Prompt line: // next record "Cc1nnsc1S(=O)(=O)Cc1ccccc1Cl"
Response line: inactive

Prompt line: Lookup "COc1ccc(C(=O)OCC(=O)NC(=O)CCSc2ccccc2)cc1"
Response line: inactive

Prompt line: Another compound to check: "CSc1ccccc1NC(=O)c1cnc2sc(C)cn2c1=O"
Response line: inactive
